FYI, the data here is from patent US9334263B2.

Property: pIC50; scope: individual molecules
- experimental system: D816V Kit (Homo sapiens, UniProt P10721, D816V)
- Sequence (P10721 26-976 D816V): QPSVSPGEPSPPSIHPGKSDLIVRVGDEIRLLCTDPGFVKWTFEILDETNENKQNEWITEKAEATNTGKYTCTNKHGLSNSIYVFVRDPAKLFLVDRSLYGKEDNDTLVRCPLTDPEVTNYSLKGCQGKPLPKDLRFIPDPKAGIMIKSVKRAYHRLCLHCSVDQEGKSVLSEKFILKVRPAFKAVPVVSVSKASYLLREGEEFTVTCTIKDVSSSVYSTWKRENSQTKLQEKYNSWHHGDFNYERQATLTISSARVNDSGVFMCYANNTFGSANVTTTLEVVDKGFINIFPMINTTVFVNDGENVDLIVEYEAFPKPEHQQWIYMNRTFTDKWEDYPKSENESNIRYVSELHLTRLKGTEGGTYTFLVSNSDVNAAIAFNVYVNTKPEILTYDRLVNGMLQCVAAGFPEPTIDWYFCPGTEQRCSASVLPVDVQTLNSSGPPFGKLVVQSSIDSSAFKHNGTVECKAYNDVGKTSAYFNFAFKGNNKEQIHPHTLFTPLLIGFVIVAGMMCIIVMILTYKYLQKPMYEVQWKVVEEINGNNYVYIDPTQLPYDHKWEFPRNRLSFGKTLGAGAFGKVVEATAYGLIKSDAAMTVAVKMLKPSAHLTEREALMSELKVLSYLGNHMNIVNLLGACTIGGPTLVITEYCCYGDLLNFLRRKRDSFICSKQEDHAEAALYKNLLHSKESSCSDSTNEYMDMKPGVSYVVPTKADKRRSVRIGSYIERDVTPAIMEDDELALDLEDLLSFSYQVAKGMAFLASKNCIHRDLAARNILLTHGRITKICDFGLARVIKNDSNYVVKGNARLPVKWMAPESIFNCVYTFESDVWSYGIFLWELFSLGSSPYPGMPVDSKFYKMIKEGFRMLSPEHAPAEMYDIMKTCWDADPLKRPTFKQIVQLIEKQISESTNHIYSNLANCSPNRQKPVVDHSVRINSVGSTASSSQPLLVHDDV
- method: Kit D816V assay at Km (Caliper electrophoretic mobility shift)
- test parameters: 15 uM ATP, 25 C, 90 minutes
pIC50: −log10 of the molar value.

Here's what some known entries look like.
>>> experimental_result("C[C@H](O)Cn1cc(Nc2ncnc(N3CCN(c4ncc(Sc5ccccc5F)cn4)CC3)n2)cn1")
"> 9.00"
>>> experimental_result("O=C1CCc2ccc(Nc3ncnc(N4CCN(c5ncc(Cc6ccccc6)cn5)CC4)n3)cc2N1")
"8.00 to 9.00"
>>> experimental_result("Cn1cc(Nc2ncnc(N3CCN(c4ncc([C@@](C)(N)c5ccc(F)cc5)cn4)CC3)n2)cn1")
"> 9.00"

pIC50 reading for CN(C)[C@@H]1CCN(Cc2cccc(Nc3ncnc(N4CCN(c5ncc(Cc6ccccc6)cn5)CC4)n3)c2)C1 : > 9.00

pIC50 reading for CN1CCO[C@H](Cn2cc(Nc3ncnc(N4CCN(c5ncc(Cc6ccccc6)cn5)CC4)n3)cn2)C1 : > 9.00

pIC50 reading for c1ccc(Cc2cnc(N3CCN(c4ncnc(Nc5ccccc5)n4)CC3)nc2)cc1 : 8.00 to 9.00

pIC50 reading for C[C@H](c1ccccc1)c1cnc(N2CCN(c3ncnc(Nc4cnn(C[C@@H]5CNCCO5)c4)n3)CC2)nc1 : > 9.00

pIC50 reading for OC[C@@H](O)c1ccc(Nc2ncnc(N3CCN(c4ncc(Cc5ccc(F)cc5)cn4)CC3)n2)cc1 : > 9.00

pIC50 reading for c1ccc(Cc2cnc(N3CCN(c4ncnc(Nc5cccc(CN6CCOCC6)c5)n4)CC3)nc2)cc1 : 8.00 to 9.00

pIC50 reading for c1ccc(Cc2cnc(N3CCN(c4ncnc(Nc5cnn(C[C@@H]6CCCN6)c5)n4)CC3)nc2)cc1 : > 9.00

pIC50 reading for O[C@@H](c1ccccc1)c1cnc(N2CCN(c3ncnc(Nc4cnn(CC5CNCCO5)c4)n3)CC2)nc1 (stereo partly drawn) : > 9.00

pIC50 reading for Oc1nc(N2CCN(c3ncnc(Nc4ccc5c(c4)CNCC5)n3)CC2)ncc1Cc1ccccc1 : > 9.00

pIC50 reading for C[C@@H]1CN(c2ncnc(Nc3cnn(C[C@@H]4CNCCO4)c3)n2)CCN1c1ncc(Br)c(N)n1 : 7.00 to 8.00

pIC50 reading for O[C@@H]1CCN(c2ccc(Nc3ncnc(N4CCN(c5ncc(Cc6ccccc6)cn5)CC4)n3)cc2)C1 : 8.00 to 9.00

pIC50 reading for COc1cccc(Cc2cnc(N3CCN(c4ncnc(Nc5cnn(C[C@@H]6CNCCO6)c5)n4)CC3)nc2)c1 : 8.00 to 9.00

* * *

Property: pIC50; scope: individual compounds
- experimental system: D816V Kit (Homo sapiens, UniProt P10721, D816V)
- method: Kit D816V assay at Km (Caliper electrophoretic mobility shift)
- test parameters: 15 uM ATP, 25 C, 90 minutes
- Excerpt: In order to assess the activity of chemical compounds against the relevant kinase of interest, the Caliper LifeSciences electrophoretic mobility shift technology platform is used. […] At the end of the reaction, the mix of phosphorylated (product) and non-phosphorylated (substrate) peptides are passed through the microfluidic system of the Caliper EZ Reader 2, under an applied potential difference. […] As the pools pass a LEDS within the instrument, these pools are detected and resolved as separate peaks. […]
pIC50: −log10 of the molar value.

>>> experimental_result("CC1(C)CNCc2cc(Nc3ncnc(N4CCN(c5ncc(Cc6ccccc6)cn5)CC4)n3)ccc21 [Compound 99]")
"8.00 to 9.00"
>>> experimental_result("Cc1cc(N2CCNCC2)ccc1Nc1ncnc(N2CCN(c3ncc(Cc4ccccc4)cn3)CC2)n1 [Compound 158]")
"8.00 to 9.00"
>>> experimental_result("COc1cc(Nc2ncnc(N3CCN(c4ncc(Cc5ccccc5)cn4)CC3)n2)cc(OC)c1 [Compound 54]")
"8.00 to 9.00"
>>> experimental_result("c1ccc(Cc2cnc(N3CCN(c4ncnc(Nc5ccc6cn[nH]c6c5)n4)CC3)nc2)cc1 [Compound 21]")
"8.00 to 9.00"
>>> experimental_result("CC1(O)CCCN(c2ccc(Nc3ncnc(N4CCN(c5ncc(Cc6ccccc6)cn5)CC4)n3)cc2)C1 (centres unmarked) [Compound 225]")
"8.00 to 9.00"

Considering Fc1cccc(Cc2cnc(N3CCN(c4ncnc(Nc5cnn(C[C@@H]6CNCCO6)c5)n4)CC3)nc2)c1 [Compound 197] , its pIC50 with D816V Kit (Homo sapiens, UniProt P10721, D816V) was recorded as 8.00 to 9.00

Considering Cn1cc(Nc2ncnc(N3CCN(c4ncc([C@](C)(O)c5ccc(F)cc5)cn4)CC3)n2)cn1 [Compound 39] , its pIC50 with D816V Kit (Homo sapiens, UniProt P10721, D816V) was recorded as > 9.00

Considering c1ccc(Nc2cnc(N3CCN(c4ncnc(Nc5ccccc5)n4)CC3)nc2)cc1 [Compound 9] , its pIC50 with D816V Kit (Homo sapiens, UniProt P10721, D816V) was recorded as 7.00 to 8.00

* * *

- experimental system: Kit D816V (HMC1.2 cells, Kit V560G and D816V) (Homo sapiens, UniProt P10721, D816V/V560G)
- Construct: endogenous in cells
- Sequence (P10721 26-976 V560G/D816V): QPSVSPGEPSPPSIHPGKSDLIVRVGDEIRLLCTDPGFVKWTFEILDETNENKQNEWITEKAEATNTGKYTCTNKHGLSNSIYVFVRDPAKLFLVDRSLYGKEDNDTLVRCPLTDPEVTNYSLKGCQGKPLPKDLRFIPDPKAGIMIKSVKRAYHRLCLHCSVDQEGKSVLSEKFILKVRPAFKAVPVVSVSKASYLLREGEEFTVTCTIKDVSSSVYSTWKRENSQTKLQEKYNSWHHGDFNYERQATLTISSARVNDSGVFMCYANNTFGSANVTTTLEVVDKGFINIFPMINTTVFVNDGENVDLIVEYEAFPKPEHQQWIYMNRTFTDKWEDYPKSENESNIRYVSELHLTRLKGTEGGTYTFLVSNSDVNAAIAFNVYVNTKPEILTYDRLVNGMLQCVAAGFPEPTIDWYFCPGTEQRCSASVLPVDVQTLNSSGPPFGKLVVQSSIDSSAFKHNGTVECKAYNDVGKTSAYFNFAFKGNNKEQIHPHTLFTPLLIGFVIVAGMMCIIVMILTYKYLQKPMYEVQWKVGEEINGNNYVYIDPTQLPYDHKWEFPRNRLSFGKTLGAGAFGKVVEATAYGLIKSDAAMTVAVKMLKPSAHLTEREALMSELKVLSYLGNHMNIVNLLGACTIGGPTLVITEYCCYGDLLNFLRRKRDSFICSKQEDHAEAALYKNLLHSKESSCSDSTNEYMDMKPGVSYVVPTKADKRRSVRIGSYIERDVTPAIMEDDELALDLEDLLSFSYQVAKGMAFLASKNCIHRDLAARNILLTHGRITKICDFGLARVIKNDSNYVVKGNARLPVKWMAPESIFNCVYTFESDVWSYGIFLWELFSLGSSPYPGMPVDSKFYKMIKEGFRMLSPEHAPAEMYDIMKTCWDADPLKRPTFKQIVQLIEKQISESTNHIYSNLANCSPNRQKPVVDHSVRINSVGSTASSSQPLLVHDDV
- method: HMC1.2 autophosphorylation assay (AlphaLISA, phospho-Y719 c-Kit)
- test parameters: Kit autophosphorylation at tyrosine 719, 90 minutes, read-out: Cellular Activity
pIC50: −log10 of the molar value.
observable: pIC50

>>> experimental_result("C[C@H](O)CN1CCc2ccc(Nc3ncnc(N4CCN(c5ncc(Cc6ccccc6)cn5)CC4)n3)cc2C1")
"> 8.00"
>>> experimental_result("O=S1(=O)Cc2ccc(Nc3ncnc(N4CCN(c5ncc(Cc6ccccc6)cn5)CC4)n3)cc2CN1")
"> 8.00"
>>> experimental_result("c1ccc(Cc2cnc(N3CCN(c4ncnc(Nc5cn[nH]c5)n4)CC3)nc2)cc1")
"7.00 to 8.00"

pIC50 reading for Cc1nn(C[C@H](C)O)cc1Nc1ncnc(N2CCN(c3ncc(Sc4ccccc4F)cn3)CC2)n1 : 7.00 to 8.00

pIC50 reading for OC1(c2ccc(Nc3ncnc(N4CCN(c5ncc(Cc6ccccc6)cn5)CC4)n3)cc2)CCCCC1 : 7.00 to 8.00

pIC50 reading for OC[C@@H](O)COc1cccc(Nc2ncnc(N3CCN(c4ncc(Cc5ccccc5)cn4)CC3)n2)c1 : 7.00 to 8.00

pIC50 reading for c1ccc(Cc2cnc(N3CCN(c4ncnc(Nc5cnn(CC6CNC6)c5)n4)CC3)nc2)cc1 : 7.00 to 8.00

* * *

- experimental system: Kit D816V (HMC1.2 cells, Kit V560G and D816V) (Homo sapiens, UniProt P10721, D816V/V560G)
- Construct: endogenous in cells
- method: HMC1.2 autophosphorylation assay (AlphaLISA, phospho-Y719 c-Kit)
- test parameters: Kit autophosphorylation at tyrosine 719, 90 minutes, read-out: Cellular Activity
pIC50: −log10 of the molar value.
Property: pIC50; scope: individual compounds

Here's what some known entries look like.
>>> experimental_result("CN(C)[C@H]1CCN(Cc2cccc(Nc3ncnc(N4CCN(c5ncc(Cc6ccccc6)cn5)CC4)n3)c2)C1")
"7.00 to 8.00"
>>> experimental_result("c1ccc(Cc2cnc(N3CCN(c4ncnc(Nc5cnn(CC6CCCNC6)c5)n4)CC3)nc2)cc1 (centres unmarked)")
"7.00 to 8.00"
>>> experimental_result("CC(C)(O)c1cccc(Nc2ncnc(N3CCN(c4ncc(Cc5ccccc5)cn4)CC3)n2)c1")
"5.00 to 6.00"

pIC50 reading for c1ccc(Cc2cnc(N3CCN(c4ncnc(Nc5ccc(N6CCNCC6)cc5)n4)CC3)nc2)cc1 : 7.00 to 8.00

pIC50 reading for C[C@H](O)CNc1ccc(Nc2ncnc(N3CCN(c4ncc(Cc5ccccc5)cn4)CC3)n2)cc1 : 7.00 to 8.00

* * *

Property: IC50; scope: individual compounds
- experimental system: D816V Kit (Homo sapiens, UniProt P10721, D816V)
- method: Kit D816V assay at Km (Caliper electrophoretic mobility shift)
- test parameters: 15 uM ATP, 25 C, 90 minutes

>>> experimental_result("CN1CCN(c2ccc(Nc3ncnc(N4CCN(c5ncc(Cc6ccccc6)cn5)CC4)n3)cc2F)CC1 [Compound 237]")
"< 1 nM"
>>> experimental_result("Cc1c(Nc2ncnc(N3CCN(c4ncc(Cc5ccccc5)c(N)n4)CC3)n2)cnn1C[C@@H]1CNCCO1 [Compound 245]")
"< 1 nM"
>>> experimental_result("c1cncc(Cc2cnc(N3CCN(c4ncnc(Nc5ccc6c(c5)CNCC6)n4)CC3)nc2)c1 [Compound 45]")
"1.01 to 10 nM"
>>> experimental_result("c1ccc(Cc2cnc(N3CCN(c4ncnc(Nc5cccc(N6CCOCC6)c5)n4)CC3)nc2)cc1 [Compound 104]")
"1.01 to 10 nM"
>>> experimental_result("C[C@@H]1CN(c2ncnc(Nc3ccc(P(C)(C)=O)cc3)n2)CCN1c1ncc(Cc2ccccc2)cn1 [Compound 128]")
"1.01 to 10 nM"
>>> experimental_result("Nc1nc(N2CCN(c3ncnc(Nc4ccc5c(c4)CN(CCO)CC5)n3)CC2)ncc1Cc1ccccc1 [Compound 229]")
"< 1 nM"

We next turn to a different compound, shown below.
Considering CC(O)c1ccc(Nc2ncnc(N3CCN(c4ncc([C@@](C)(N)c5ccc(F)cc5)cn4)CC3)n2)cc1 (stereo partly shown) [Compound 140] , its IC50 with D816V Kit (Homo sapiens, UniProt P10721, D816V) was recorded as < 1 nM
